Reported EC50 values follow for various molecules
Molecular target: human APJ receptor (Homo sapiens (Human), UniProt P35414)
Sequence (P35414 whole entry): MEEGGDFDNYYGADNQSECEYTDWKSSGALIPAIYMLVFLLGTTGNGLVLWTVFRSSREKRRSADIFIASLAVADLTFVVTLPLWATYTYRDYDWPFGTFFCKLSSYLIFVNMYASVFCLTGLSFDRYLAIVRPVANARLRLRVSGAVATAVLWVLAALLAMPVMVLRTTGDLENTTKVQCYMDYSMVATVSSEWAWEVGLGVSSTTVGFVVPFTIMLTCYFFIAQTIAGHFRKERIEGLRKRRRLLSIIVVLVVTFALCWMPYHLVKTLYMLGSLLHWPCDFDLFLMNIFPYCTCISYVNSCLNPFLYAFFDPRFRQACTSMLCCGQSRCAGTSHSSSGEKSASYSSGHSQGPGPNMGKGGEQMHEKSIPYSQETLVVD
Assay: Intracellular cAMP accumulation assay (APJ hcAMP, HTRF)
Assay type: cell-based
Details: HEK293 cells stably expressing human APJ receptor; inhibition of forskolin-mediated cAMP production; read-out: hAPJ cAMP EC50 Potency range

Solved entries (count: 4):
> print(dat)
                                   molecule         result
1  CCOCc1nc(O)c(-c2nnc(Cc3noc4ccccc34)o2)c(O)c1-c1c(OC)cc(F)cc1OC [Example 213]  0.01 to 10 nM
2  CCCCc1nc(O)c(-c2nnc(CN(C)C(=O)c3ccccc3)o2)c(O)c1-c1c(OC)cccc1OC [Example 172]  0.01 to 10 nM
3  CCCCc1nc(O)c(-c2nnc(CC(=O)NC(C)C)o2)c(O)c1-c1c(OC)cccc1OC [Example 181]  0.01 to 10 nM
4  CCCCc1nc(O)c(-c2nnc(Cc3ccc(F)c(F)c3)o2)c(O)c1-c1cccc(OCc2ccccc2)c1 [Example 142]   10 to 100 nM

[ask] Query for human APJ receptor (Homo sapiens (Human), UniProt P35414): what EC50 does the record show for CCCCc1nc(O)c(-c2nnc(-c3cc(C)[nH]n3)o2)c(O)c1-c1c(OC)cccc1OC [Example 19] ?
[reply] 100 to 300 nM

[ask] Give human APJ receptor (Homo sapiens (Human), UniProt P35414) EC50 for CCCCc1nc(O)c(-c2nnc(CNC(=O)COC)o2)c(O)c1-c1c(OC)cccc1OC [Example 158]
[reply] 0.01 to 10 nM

[ask] Short answer please: EC50, human APJ receptor (Homo sapiens (Human), UniProt P35414), entry CCCCc1nc(O)c(-c2nnc(C(OC)c3ccccc3)o2)c(O)c1-c1c(OC)cccc1OC (centres unmarked) [Example 45]
[reply] 10 to 100 nM

[ask] // lookup EC50 | system=human APJ receptor (Homo sapiens (Human), UniProt P35414) | key= CCOCc1nc(O)c(-c2nnc(Cc3ccc(Cl)cn3)o2)c(O)c1-c1c(OC)cccc1OC [Example 127]
[reply] 0.01 to 10 nM

----------
Target: human APJ receptor (Homo sapiens (Human))
Assay: Intracellular cAMP accumulation assay (APJ hcAMP, HTRF)
Type: cell-based
Details: HEK293 cells stably expressing human APJ receptor; inhibition of forskolin-mediated cAMP production; read-out: hAPJ cAMP EC50 Potency range
Recorded EC50 for the following molecules

> print(dat)
                                   molecule  endpoint         result
1  CCCCc1nc(O)c(-c2nnc(Cc3ccc(Cl)c(F)c3)o2)c(O)c1-c1c(OC)cccc1OC [Example 71]      EC50  0.01 to 10 nM
2  CCCCc1nc(O)c(-c2nnc(CC(=O)NCc3ccccn3)o2)c(O)c1-c1c(OC)cccc1OC [Example 178]      EC50   10 to 100 nM
3  CCCCc1nc(O)c(-c2nnc(Cc3ccnc(Cl)c3)o2)c(O)c1-c1c(OC)cccc1OC [Example 59]      EC50  0.01 to 10 nM

[ask] Form field: reported EC50 of CCCCc1nc(O)c(-c2nnc(CC3CCOCC3)o2)c(O)c1-c1c(OC)cccc1OC [Example 69]
[reply] 10 to 100 nM

Taken from patent US10336739B2.
